# literature pull: Serine/threonine-protein kinase mTOR (Homo sapiens, UniProt P42345) IC50

Incoming: Item CNC(=O)Nc1ccc(-c2nc(N3CCOCC3)c3nc(-c4cccc(NS(=O)(=O)CCCF)c4F)ccc3n2)cc1 with Serine/threonine-protein kinase mTOR (Homo sapiens, UniProt P42345) - IC50?
Outgoing: 1 to 100 nM

Incoming: Item Cn1cc(-c2cc(-c3cnc4ccccc4c3)ccn2)n(-c2ccc(C(C)(C)C#N)cc2)c1=O with Serine/threonine-protein kinase mTOR (Homo sapiens, UniProt P42345) - IC50?
Outgoing: 0.1 to 100 nM

Incoming: Item Cn1cc(-n2c(=O)n(C)c3cnc4ccc(-c5cnc(N)c(CO)c5)cc4c32)c(Cl)n1 with Serine/threonine-protein kinase mTOR (Homo sapiens, UniProt P42345) - IC50?
Outgoing: < 3 nM

Incoming: Item CCNc1cc(-c2ccc3ncc4c(c3c2)n(-c2cn(C)nc2Cl)c(=O)n4C)cnc1OC with Serine/threonine-protein kinase mTOR (Homo sapiens, UniProt P42345) - IC50?
Outgoing: 5 nM

Incoming: Item Nc1ncc(-c2cc(N3CCOCC3)cc(S(=O)(=O)Cc3ccccc3F)c2)cn1 with Serine/threonine-protein kinase mTOR (Homo sapiens, UniProt P42345) - IC50?
Outgoing: 2980 nM

---

# literature pull: Serine/threonine-protein kinase mTOR (Homo sapiens) IC50

Please review the entries below; each comes with its answer.
Incoming: Item COc1cc(-c2cccc(NS(=O)(=O)CCCF)c2F)cc2c(N3CCOCC3)nc(-c3ccc(NC(C)=O)cc3)nc12 with Serine/threonine-protein kinase mTOR (Homo sapiens) - IC50?
Outgoing: 1 to 100 nM

Incoming: Item CN(C)C(=O)c1ccc(NC(=O)Nc2ccc(-c3nc(N4CCOCC4)c4ncc(-c5cnn(C)c5)cc4n3)cn2)cc1 with Serine/threonine-protein kinase mTOR (Homo sapiens) - IC50?
Outgoing: < 50 nM

Incoming: Item Fc1cccc(Cn2cnc3c(-c4ccc5[nH]ccc5c4)nc(N4CCOCC4)nc32)c1 with Serine/threonine-protein kinase mTOR (Homo sapiens) - IC50?
Outgoing: 1000 to 5000 nM

Incoming: Item Cc1cn(C2CCN(C(=O)CO)CC2)c2nc3c(-c4ccc(-c5ncc[nH]5)nc4)cnn3c(N)c12 with Serine/threonine-protein kinase mTOR (Homo sapiens) - IC50?
Outgoing: < 10 nM

Incoming: Item Cc1nn(C(C)C)cc1-n1c(=O)n(C)c2cnc3ccc(-c4ccc(C(N)=O)nc4)cc3c21 with Serine/threonine-protein kinase mTOR (Homo sapiens) - IC50?
Outgoing: 20 nM

Incoming: Item Cc1nn(C)cc1-n1c(=O)n(C)c2cnc3ccc(-c4ccc(N5CCCC5)nc4)cc3c21 with Serine/threonine-protein kinase mTOR (Homo sapiens) - IC50?
Outgoing: 7 nM

Incoming: Item O=c1[nH]c2ncc(-c3cnc4[nH]ccc4c3)cc2n1CC1COCCO1 (stereo not drawn) with Serine/threonine-protein kinase mTOR (Homo sapiens) - IC50?
Outgoing: < 50 nM

Incoming: Item COCc1cc(-c2ccc3ncc4c(c3c2)n(-c2cn(C(C)C)nc2C)c(=O)n4C)cnc1N with Serine/threonine-protein kinase mTOR (Homo sapiens) - IC50?
Outgoing: 12 nM

Incoming: Item CCNc1cc(-c2ccc3ncc4c(c3c2)n(-c2cn(C)nc2C)c(=O)n4C)cnc1Cl with Serine/threonine-protein kinase mTOR (Homo sapiens) - IC50?
Outgoing: < 3 nM

Incoming: Item COc1ncc(-c2cnc3c(N4CCOCC4)nc(-c4ccc(NC(=O)Nc5ccc(C(=O)N(C)C)cc5)cc4)nc3c2)cn1 with Serine/threonine-protein kinase mTOR (Homo sapiens) - IC50?
Outgoing: < 50 nM

# context switch: different compound, same IC50
Incoming: Item CC(C)Cn1c(N2CCN(C(=O)C[C@@H](C)O)[C@H](C)C2)nc2c(N3CCOCC3)nc(-c3cnc(N)nc3)nc21 with Serine/threonine-protein kinase mTOR (Homo sapiens) - IC50?
Outgoing: 10 to 30 nM

---

pIC50: −log10 of the molar value.
# literature pull: Serine/threonine-protein kinase mTOR (Homo sapiens, UniProt P42345) pIC50

Please review the entries below; each comes with its answer.
Incoming: Item CC(=O)Nc1ccc(NC(=O)Nc2ccc(-c3nc(N4CCOCC4)c4ncc(-c5cnn(C)c5)cc4n3)cc2)cc1 with Serine/threonine-protein kinase mTOR (Homo sapiens, UniProt P42345) - pIC50?
Outgoing: > 7.30

Incoming: Item O=C(NOCCOCCOCCOCCC(=O)N1CCN(c2cnc3ccc(-c4cnc(Cl)c(NS(=O)(=O)c5ccc(F)cc5)c4)cc3n2)CC1)c1ccc(F)c(F)c1Nc1ccc(I)cc1F with Serine/threonine-protein kinase mTOR (Homo sapiens, UniProt P42345) - pIC50?
Outgoing: 7.27

More entries:
Incoming: Item Cc1ccc(S(=O)(=O)NCC2(C)COC2)cc1-c1cncc(-c2cn(C)nc2C)n1 with Serine/threonine-protein kinase mTOR (Homo sapiens, UniProt P42345) - pIC50?
Outgoing: 6.05

Incoming: Item CC(=O)Nc1ccc(-c2cnc3c(N4CCOCC4)nc(-c4cnc(N)nc4)nc3c2)cc1 with Serine/threonine-protein kinase mTOR (Homo sapiens, UniProt P42345) - pIC50?
Outgoing: > 7.30

Incoming: Item CC1CN(c2nc(-c3ccc(NC(=O)Nc4ccc(C(=O)N(C)C)cc4)cc3)nc3cc(-c4cnn(C)c4)cnc23)CC(C)O1 (centres unmarked) with Serine/threonine-protein kinase mTOR (Homo sapiens, UniProt P42345) - pIC50?
Outgoing: 6.70 to 7.30

Incoming: Item Cc1nn(C)cc1-n1c(=O)n(C)c2cnc3ccc(-c4ccc(-c5ncc[nH]5)cc4)cc3c21 with Serine/threonine-protein kinase mTOR (Homo sapiens, UniProt P42345) - pIC50?
Outgoing: > 8.52

Incoming: Item Cc1cc(N)ncc1-c1nc(N2CCOC[C@@H]2C)c2nc(-c3cccc(NS(=O)(=O)CCCF)c3F)ccc2n1 with Serine/threonine-protein kinase mTOR (Homo sapiens, UniProt P42345) - pIC50?
Outgoing: 6.00 to 7.00

---

# literature pull: Serine/threonine-protein kinase mTOR (Homo sapiens, UniProt P42345) pIC50
pIC50: −log10 of the molar value.

Please review the entries below; each comes with its answer.
Incoming: Item C[C@H]1COCCN1c1nc(-c2cnc(N)cc2C(F)(F)F)nc2ccc(-c3cccc(NS(=O)(=O)CCCF)c3F)nc12 with Serine/threonine-protein kinase mTOR (Homo sapiens, UniProt P42345) - pIC50?
Outgoing: 6.00 to 7.00

Incoming: Item CC(c1ccccc1)n1c(=O)[nH]c2ncc(-c3cccc(N)c3)nc21 (stereo not drawn) with Serine/threonine-protein kinase mTOR (Homo sapiens, UniProt P42345) - pIC50?
Outgoing: 5.00 to 5.29

Incoming: Item C[C@H](O)C(=O)Nc1cccc(-c2ccc3c(N4CCOCC4)nc(-c4cnc(N)nc4)nc3c2)c1 with Serine/threonine-protein kinase mTOR (Homo sapiens, UniProt P42345) - pIC50?
Outgoing: 5.00 to 6.70

Incoming: Item Cc1n[nH]c2c1c(CC1CCC(C(=O)O)CC1)nc1c(-c3ccc(-c4cnn(C)c4)nc3)cnn12 (stereo not drawn) with Serine/threonine-protein kinase mTOR (Homo sapiens, UniProt P42345) - pIC50?
Outgoing: 8.00 to 9.00

Incoming: Item O=c1[nH]c2ncc(-c3cnc4[nH]ccc4c3)cc2n1CCC1CCOCC1 with Serine/threonine-protein kinase mTOR (Homo sapiens, UniProt P42345) - pIC50?
Outgoing: > 7.30

More entries:
Incoming: Item CN(C)C(=O)c1ccc(NC(=O)Nc2ccc(-c3nc(N4CCOCC4)c4ccc(-c5ccccn5)cc4n3)cc2)c(F)c1 with Serine/threonine-protein kinase mTOR (Homo sapiens, UniProt P42345) - pIC50?
Outgoing: > 7.30

Incoming: Item CC(=O)Nc1ccc(NC(=O)Nc2ccc(-c3nc(N4CCOCC4)c4ccc(-c5cncnc5)cc4n3)cc2)cc1 with Serine/threonine-protein kinase mTOR (Homo sapiens, UniProt P42345) - pIC50?
Outgoing: > 7.30

Incoming: Item CC(C)(C#N)c1ccc(-c2nnc3cnc4ccc(-c5ccc6nc(N)oc6c5)cc4n23)cc1 with Serine/threonine-protein kinase mTOR (Homo sapiens, UniProt P42345) - pIC50?
Outgoing: > 7.00

Incoming: Item C[C@H]1COCCN1c1nc(-c2ccc(NC(=O)Nc3ccncc3)cc2)nc2c1CS(=O)(=O)C2 with Serine/threonine-protein kinase mTOR (Homo sapiens, UniProt P42345) - pIC50?
Outgoing: > 7.00

Incoming: Item Cc1ccc(-c2ccc3c(N4CCOCC4)nc(-c4ccc(NC(=O)Nc5ccc(C(=O)N(C)C)cc5F)cc4)nc3c2)cn1 with Serine/threonine-protein kinase mTOR (Homo sapiens, UniProt P42345) - pIC50?
Outgoing: > 7.30

Incoming: Item COc1ncc(-c2ccc3ncc4ncn(CCN(C)C)c4c3n2)cc1NS(=O)(=O)C(F)(F)F with Serine/threonine-protein kinase mTOR (Homo sapiens, UniProt P42345) - pIC50?
Outgoing: > 7.00

Incoming: Item Cc1ncc(-c2ccc3ncc4c(c3c2)n(-c2cn(C)nc2C)c(=O)n4C)cc1NS(C)(=O)=O with Serine/threonine-protein kinase mTOR (Homo sapiens, UniProt P42345) - pIC50?
Outgoing: 8.30

Incoming: Item Nc1ncc(-c2nc(N3CCOCC3)c3ncc(-c4cccc(NC(=O)CN5CCC(O)CC5)c4)cc3n2)cn1 with Serine/threonine-protein kinase mTOR (Homo sapiens, UniProt P42345) - pIC50?
Outgoing: > 7.30

Incoming: Item CC1c2c(N3CCOCC3)nc(-c3ccc(NC(=O)NCCF)cc3)nc2C(C)(C)S1(=O)=O (stereo not drawn) with Serine/threonine-protein kinase mTOR (Homo sapiens, UniProt P42345) - pIC50?
Outgoing: > 7.00

Incoming: Item COc1cc(-c2cccc(NS(=O)(=O)CCCF)c2F)cc2c(N3CCOC[C@@H]3C)nc(-c3ccc(N)nc3)nc12 with Serine/threonine-protein kinase mTOR (Homo sapiens, UniProt P42345) - pIC50?
Outgoing: 7.00 to 9.00

Incoming: Item CC(=O)c1c[nH]c2ncc(-c3cnc4[nH]c(=O)n(CC5CCOCC5)c4c3)cc12 with Serine/threonine-protein kinase mTOR (Homo sapiens, UniProt P42345) - pIC50?
Outgoing: 5.30 to 7.00

Incoming: Item Cc1nn(C)c(C)c1-c1ccc2c(N3CCOCC3)nc(-c3ccc(NC(=O)Nc4ccc(C(=O)N(C)C)cc4)cc3)nc2c1 with Serine/threonine-protein kinase mTOR (Homo sapiens, UniProt P42345) - pIC50?
Outgoing: > 7.30

Incoming: Item CCn1cc(-n2c(=O)n(C)c3cnc4ccc(-c5ccc(OC)c(OC)c5)nc4c32)c(C)n1 with Serine/threonine-protein kinase mTOR (Homo sapiens, UniProt P42345) - pIC50?
Outgoing: 7.19

Incoming: Item CN(C)C(=O)c1ccc(NC(=O)Nc2ccc(-c3nc(N4CCOCC4)c4ncc(-c5cccnc5F)cc4n3)cc2)cc1F with Serine/threonine-protein kinase mTOR (Homo sapiens, UniProt P42345) - pIC50?
Outgoing: > 7.30

Incoming: Item CN(C)C(=O)C(=O)N1CCN(c2nc3c(N4CCOCC4)nc(-c4cnc(N)nc4)nc3n2CC(F)(F)F)CC1 with Serine/threonine-protein kinase mTOR (Homo sapiens, UniProt P42345) - pIC50?
Outgoing: > 8.00

Incoming: Item CCCCN1CCC(n2cnc3c(-c4cccc(O)c4)nc(N4CCOCC4)nc32)CC1 with Serine/threonine-protein kinase mTOR (Homo sapiens, UniProt P42345) - pIC50?
Outgoing: > 6.00

Incoming: Item CCCOc1ccc(-c2ccc3ncc4c(c3c2)n(-c2cn(C)nc2C)c(=O)n4C)cn1 with Serine/threonine-protein kinase mTOR (Homo sapiens, UniProt P42345) - pIC50?
Outgoing: 7.60

Incoming: Item COCC(=O)N1CCC(n2nnc3cnc4ccc(-c5cnc(N)c(C(F)(F)F)c5)nc4c32)CC1 with Serine/threonine-protein kinase mTOR (Homo sapiens, UniProt P42345) - pIC50?
Outgoing: > 7.00

Incoming: Item FC(F)c1nc2ccccc2n1-c1nc(NC2(Cc3ccccc3Cl)CC2)nc(N2CCOCC2)n1 with Serine/threonine-protein kinase mTOR (Homo sapiens, UniProt P42345) - pIC50?
Outgoing: < 6.30
